Source listed as the supplement of paper PMC10307832.

system: NCI-H1666; assay: relative viability (nuclei count vs DMSO), 5 days (fraction); higher = more cells survive; conditions: first compound 0.08 µM
Assign relative viability to each entry below.
Answer with a number only.

compound CCCCCCCCCCCC1=C(O)C(=O)C=C(O)C1=O [Embelin] + O=C(CCCCCCC(=O)Nc1ccccc1)NO [Vorinostat] (partner 1 µM) , relative viability observed: 1.07

compound CCCCCCCCCCCC1=C(O)C(=O)C=C(O)C1=O [Embelin] + Cc1cc(Nc2cc(N3CCN(C)CC3)nc(Sc3ccc(NC(=O)C4CC4)cc3)n2)n[nH]1 [Tozasertib] (partner 0.1 µM) , relative viability observed: 0.615

compound CCCCCCCCCCCC1=C(O)C(=O)C=C(O)C1=O [Embelin] + N=C(N)NC(=N)NCCc1ccccc1 [Phenformin] (partner 250 µM) , relative viability observed: 0.57

compound CCCCCCCCCCCC1=C(O)C(=O)C=C(O)C1=O [Embelin] + CS(=O)(=O)N1CCN(Cc2cc3nc(-c4cccc5[nH]ncc45)nc(N4CCOCC4)c3s2)CC1 [Pictilisib] (partner 1 µM) , relative viability observed: 0.482

compound CCCCCCCCCCCC1=C(O)C(=O)C=C(O)C1=O [Embelin] + CS(=O)(=O)CCNCc1ccc(-c2ccc3ncnc(Nc4ccc(OCc5cccc(F)c5)c(Cl)c4)c3c2)o1 [Lapatinib] (partner 2 µM) , relative viability observed: 0.603

###

Assign relative viability to each entry below.
tested on: LK-2; assay: relative viability (nuclei count vs DMSO), 5 days (fraction); higher = more cells survive; conditions: first compound 2.53 µM
Answer with a number only.

compound CCCCCCCCCCCC1=C(O)C(=O)C=C(O)C1=O [Embelin] + Cc1nc(Nc2ncc(C(=O)Nc3c(C)cccc3Cl)s2)cc(N2CCN(CCO)CC2)n1 [Dasatinib] (partner 0.075 µM) , relative viability observed: 0.304

compound CCCCCCCCCCCC1=C(O)C(=O)C=C(O)C1=O [Embelin] + COc1cc2c(Oc3ccc(NC(=O)C4(C(=O)Nc5ccc(F)cc5)CC4)cc3F)ccnc2cc1OCCCN1CCOCC1 [Foretinib] (partner 0.25 µM) , relative viability observed: 1.47

compound CCCCCCCCCCCC1=C(O)C(=O)C=C(O)C1=O [Embelin] + O=C(CCCCCCC(=O)Nc1ccccc1)NO [Vorinostat] (partner 1 µM) , relative viability observed: 0.261

compound CCCCCCCCCCCC1=C(O)C(=O)C=C(O)C1=O [Embelin] + O=C(c1cc(Cc2n[nH]c(=O)c3ccccc23)ccc1F)N1CCN(C(=O)C2CC2)CC1 [Olaparib] (partner 8 µM) , relative viability observed: 0.686

###

system: NCI-H460; assay: relative viability (nuclei count vs DMSO), 5 days (fraction); higher = more cells survive; details: first compound 0.08 µM
Assign relative viability to each entry below.
Answer with a number only.

Measured on NCI-H460, CCCCCCCCCCCC1=C(O)C(=O)C=C(O)C1=O [Embelin] + CC(=O)Nc1cccc(-n2c(=O)n(C3CC3)c(=O)c3c(Nc4ccc(I)cc4F)n(C)c(=O)c(C)c32)c1 [Trametinib] (partner 0.02 µM) has a documented relative viability of 0.173

Measured on NCI-H460, CCCCCCCCCCCC1=C(O)C(=O)C=C(O)C1=O [Embelin] + N=C(N)NC(=N)NCCc1ccccc1 [Phenformin] (partner 250 µM) has a documented relative viability of 0.535

Measured on NCI-H460, CCCCCCCCCCCC1=C(O)C(=O)C=C(O)C1=O [Embelin] + Cc1nc(Nc2ncc(C(=O)Nc3c(C)cccc3Cl)s2)cc(N2CCN(CCO)CC2)n1 [Dasatinib] (partner 0.075 µM) has a documented relative viability of 0.58

Measured on NCI-H460, CCCCCCCCCCCC1=C(O)C(=O)C=C(O)C1=O [Embelin] + NC(=O)Nc1cc(-c2cccc(F)c2)sc1C(=O)N[C@H]1CCCNC1 [AZD7762] (partner 0.2 µM) has a documented relative viability of 0.658

###

system: ChaGo-K-1; assay: relative viability (nuclei count vs DMSO), 5 days (fraction); higher = more cells survive; settings: first compound 0.04 µM
Result Type: relative viability
Answer with a number only.

molecule Clc1ccc(Nc2nnc(Cc3ccncc3)c3ccccc23)cc1 [Vatalanib] + Cc1nc(Nc2ncc(C(=O)Nc3c(C)cccc3Cl)s2)cc(N2CCN(CCO)CC2)n1 [Dasatinib] (partner 0.075 µM) , relative viability observed: 0.578

molecule Clc1ccc(Nc2nnc(Cc3ccncc3)c3ccccc23)cc1 [Vatalanib] + CCNC(=O)c1noc(-c2cc(C(C)C)c(O)cc2O)c1-c1ccc(CN2CCOCC2)cc1 [Luminespib] (partner 0.01 µM) , relative viability observed: 0.636

molecule COc1cc(N2CCC(C(N)=O)CC2)ccc1Nc1nc(N)c(Cl)c(Nc2ccccc2S(=O)(=O)C(C)C)n1 [HG-5-88-01] + COc1cc2c(Oc3ccc(NC(=O)C4(C(=O)Nc5ccc(F)cc5)CC4)cc3F)ccnc2cc1OCCCN1CCOCC1 [Foretinib] (partner 0.25 µM) , relative viability observed: 0.761

molecule COc1cc(N2CCC(C(N)=O)CC2)ccc1Nc1nc(N)c(Cl)c(Nc2ccccc2S(=O)(=O)C(C)C)n1 [HG-5-88-01] + Cc1nc(Nc2ncc(C(=O)Nc3c(C)cccc3Cl)s2)cc(N2CCN(CCO)CC2)n1 [Dasatinib] (partner 0.075 µM) , relative viability observed: 0.776

###

system: HCC-366; assay: relative viability (nuclei count vs DMSO), 5 days (fraction); higher = more cells survive; details: first compound 0.8 µM
Result Type: relative viability
Answer with a number only.

molecule CCCCCCCCCCCC1=C(O)C(=O)C=C(O)C1=O [Embelin] + C[C@@H](Oc1cc(-c2cnn(C3CCNCC3)c2)cnc1N)c1c(Cl)ccc(F)c1Cl [Crizotinib] (partner 1 µM) , relative viability observed: 0.572

molecule CCCCCCCCCCCC1=C(O)C(=O)C=C(O)C1=O [Embelin] + COc1cccc2cc(-c3nc([C@H]4CC[C@H](C(=O)O)CC4)n4ncnc(N)c34)[nH]c12 [OSI-027] (partner 0.5 µM) , relative viability observed: 1.16

molecule CCCCCCCCCCCC1=C(O)C(=O)C=C(O)C1=O [Embelin] + CC(C)C[C@H](NC(=O)[C@H](Cc1ccccc1)NC(=O)c1cnccn1)B(O)O [Bortezomib] (partner 0.002 µM) , relative viability observed: 1.05

molecule CCCCCCCCCCCC1=C(O)C(=O)C=C(O)C1=O [Embelin] + CS(=O)(=O)CCNCc1ccc(-c2ccc3ncnc(Nc4ccc(OCc5cccc(F)c5)c(Cl)c4)c3c2)o1 [Lapatinib] (partner 2 µM) , relative viability observed: 1.11

molecule CCCCCCCCCCCC1=C(O)C(=O)C=C(O)C1=O [Embelin] + NC(=O)Nc1cc(-c2cccc(F)c2)sc1C(=O)N[C@H]1CCCNC1 [AZD7762] (partner 0.2 µM) , relative viability observed: 0.314

molecule CCCCCCCCCCCC1=C(O)C(=O)C=C(O)C1=O [Embelin] + O=C(c1cc(Cc2n[nH]c(=O)c3ccccc23)ccc1F)N1CCN(C(=O)C2CC2)CC1 [Olaparib] (partner 8 µM) , relative viability observed: 0.369

###

test system: NCI-H1975; assay: relative viability (nuclei count vs DMSO), 5 days (fraction); higher = more cells survive; settings: first compound 2.53 µM
Assign relative viability to each entry below.
Answer with a number only.

compound CCCCCCCCCCCC1=C(O)C(=O)C=C(O)C1=O [Embelin] + CC1(C)CCC(c2ccc(Cl)cc2)=C(CN2CCN(c3ccc(C(=O)NS(=O)(=O)c4ccc(N[C@H](CCN5CCOCC5)CSc5ccccc5)c(S(=O)(=O)C(F)(F)F)c4)cc3)CC2)C1 [Navitoclax] (partner 0.5 µM) , relative viability observed: 1.13

compound CCCCCCCCCCCC1=C(O)C(=O)C=C(O)C1=O [Embelin] + Nc1ncn([C@H]2C[C@H](O)[C@@H](CO)O2)c(=O)n1 [Decitabine] (partner 2 µM) , relative viability observed: 0.37

compound CCCCCCCCCCCC1=C(O)C(=O)C=C(O)C1=O [Embelin] + Cc1cc(Nc2cc(N3CCN(C)CC3)nc(Sc3ccc(NC(=O)C4CC4)cc3)n2)n[nH]1 [Tozasertib] (partner 0.1 µM) , relative viability observed: 0.683

compound CCCCCCCCCCCC1=C(O)C(=O)C=C(O)C1=O [Embelin] + COc1cc2c(Oc3ccc(NC(=O)C4(C(=O)Nc5ccc(F)cc5)CC4)cc3F)ccnc2cc1OCCCN1CCOCC1 [Foretinib] (partner 0.25 µM) , relative viability observed: 1.01

compound CCCCCCCCCCCC1=C(O)C(=O)C=C(O)C1=O [Embelin] + CC(C)C[C@H](NC(=O)[C@H](Cc1ccccc1)NC(=O)c1cnccn1)B(O)O [Bortezomib] (partner 0.002 µM) , relative viability observed: 0.372

###

system: HCC-44; assay: relative viability (nuclei count vs DMSO), 5 days (fraction); higher = more cells survive; conditions: first compound 0.04 µM
Sorting guide: entries reporting relative viability beneath 0.9 go in the met pile, the rest go in the not met pile.

Item C[C@@H]1CN(CC(=O)Nc2ccc3c(c2)Cc2cccc(-c4cc(=O)cc(N5CCOCC5)o4)c2S3)C[C@H](C)O1 + Cc1nc(NC(=O)N2CCC[C@H]2C(N)=O)sc1-c1ccnc(C(C)(C)C(F)(F)F)c1 [Alpelisib] (partner 2 µM) : relative viability beneath 0.9, strictly?
met

Item Clc1ccc(Nc2nnc(Cc3ccncc3)c3ccccc23)cc1 [Vatalanib] + Nc1ncn([C@H]2C[C@H](O)[C@@H](CO)O2)c(=O)n1 [Decitabine] (partner 2 µM) : relative viability beneath 0.9, strictly?
not met

Item COc1cc(N2CCC(C(N)=O)CC2)ccc1Nc1nc(N)c(Cl)c(Nc2ccccc2S(=O)(=O)C(C)C)n1 [HG-5-88-01] + O=C(CCCCCCC(=O)Nc1ccccc1)NO [Vorinostat] (partner 1 µM) : relative viability beneath 0.9, strictly?
not met

Item C[C@@H]1CN(CC(=O)Nc2ccc3c(c2)Cc2cccc(-c4cc(=O)cc(N5CCOCC5)o4)c2S3)C[C@H](C)O1 + CC(C)C[C@H](NC(=O)[C@H](Cc1ccccc1)NC(=O)c1cnccn1)B(O)O [Bortezomib] (partner 0.002 µM) : relative viability beneath 0.9, strictly?
not met

Item Clc1ccc(Nc2nnc(Cc3ccncc3)c3ccccc23)cc1 [Vatalanib] + CC1(C)CCC(c2ccc(Cl)cc2)=C(CN2CCN(c3ccc(C(=O)NS(=O)(=O)c4ccc(N[C@H](CCN5CCOCC5)CSc5ccccc5)c(S(=O)(=O)C(F)(F)F)c4)cc3)CC2)C1 [Navitoclax] (partner 0.5 µM) : relative viability beneath 0.9, strictly?
not met
